- TESTED SYSTEM: Relaxin receptor 1 (Homo sapiens)
- MEASUREMENT PROTOCOL: qHTS Assay for Agonists of the Relaxin Receptor RXFP1: THP1 Hit Validation; also: nearly all actives have a fitted effect of over 60% in size
- ASSAY CONDITIONS: THP1-RXFP1 cells, cAMP TR-FRET, 30 min; series mostly up to 115 µM
Results filed as inconclusive are left out. Activity calls are given as the source filed them. Calls follow the shape of the dose curve; as a rule, active = well fitted activation curve with a large enough effect; inconclusive = small, poorly fitted or top-dose-only effect; inactive = no such curve, though single readings can be large or run the other way.
Give one outcome, nothing more. List: active, inactive

Please review the entries below; each comes with its answer.
>>> class_label("CCN(CC)CCCCCC(=O)Nc1ccccc1C(=O)Nc1ccccc1")
"inactive"
>>> class_label("S=c1nc[nH]c2c1[nH]c1ccc(Cl)cc12")
"active"
>>> class_label("COc1ccc(Nc2ncc(C#N)c(N)n2)c(OC)c1")
"inactive"
>>> class_label("CCC(=O)Nc1ccc(-n2nnnc2SCC(=O)NNC(=O)c2ccco2)cc1")
"inactive"
>>> class_label("C=CCNc1ncnc2c1ncn2C1OC(CO)C(O)C1O (stereo not drawn)")
"inactive"

Q) Hey, what did the test say about COC(=O)Cn1cnc2c(C#N)c3n(c2c1=O)CCCCC3 ?
A) active

Q) Hey, what did the test say about CC1CCCCN1C(=O)c1ccccc1NC(=O)c1ccco1 (stereo not drawn) ?
A) inactive

Q) Hey, what did the test say about Cc1cc(Br)c2nc3c(c(C(=O)O)c2c1)CCCCC3 ?
A) active

Q) Hey, what did the test say about O=C(COc1ncnc2scc(-c3ccccc3)c12)NCCN1C(=O)CSC1=O ?
A) active

Q) Hey, what did the test say about CC1(C)Cc2c(sc3c2c2ncnn2c2nnc(SCC(=O)NCc4ccco4)n32)CO1 ?
A) active
